# testName: Pharmacokinetics following intravenous (IV) dosing
# Format: in vivo, Sprague-Dawley rats
# testSettings: male, Sprague-Dawley, rat, plasma; hydroxycodone series, 1 mg/kg IV, Mean ± SD
parameter: clearance (mL/min/kg)
Just the number please, in mL/min/kg, no unit attached.

Here's what some known entries look like.
{"compound": "COCCOCCOC1CCC2(O)C3Cc4ccc(OC)c5c4C2(CCN3C)C1O5 (stereo not drawn) [α-6-mPEG2-O-hydroxycodone, α-6-mPEG2-O-oxycodone]", "parameter": "clearance", "units": "mL/min/kg", "testResult": 83.3}
{"compound": "COCCOCCOCCOCCOCCOCCOCCOCCOCCOC1CCC2(O)C3Cc4ccc(OC)c5c4C2(CCN3C)C1O5 (stereo not drawn) [α-6-mPEG9-O-hydroxycodone, α-6-mPEG9-O-oxycodone]", "parameter": "clearance", "units": "mL/min/kg", "testResult": 48.9}

Note to self: clearance recorded for COCCOCCOCCOC1CCC2(O)C3Cc4ccc(OC)c5c4C2(CCN3C)C1O5 (stereo not drawn) [α-6-mPEG3-O-hydroxycodone, α-6-mPEG3-O-oxycodone] was 71.7

* * *

# testName: Pharmacokinetics following intravenous (IV) dosing
# Format: in vivo, Sprague-Dawley rats
# testSettings: male, Sprague-Dawley, rat, plasma; hydroxycodone series, 1 mg/kg IV, Mean ± SD; read-out: Vss
# note: boundary value 5 L/kg maps to N; Vd below it maps to Y

{"compound": "COCCOCCOCCOCCOCCOC1CCC2(O)C3Cc4ccc(OC)c5c4C2(CCN3C)C1O5 (stereo not drawn) [α-6-mPEG5-O-hydroxycodone, α-6-mPEG5-O-oxycodone]", "categoryLabel": "Y"}
{"compound": "COCCOCCOCCOCCOC1CCC2(O)C3Cc4ccc(OC)c5c4C2(CCN3C)C1O5 (stereo not drawn) [α-6-mPEG4-O-hydroxycodone, α-6-mPEG4-O-oxycodone]", "categoryLabel": "Y"}
{"compound": "COCCOCCOCCOCCOCCOCCOCCOC1CCC2(O)C3Cc4ccc(OC)c5c4C2(CCN3C)C1O5 (stereo not drawn) [α-6-mPEG7-O-hydroxycodone, α-6-mPEG7-O-oxycodone]", "categoryLabel": "N"}
{"compound": "COCCOCCOC1CCC2(O)C3Cc4ccc(OC)c5c4C2(CCN3C)C1O5 (stereo not drawn) [α-6-mPEG2-O-hydroxycodone, α-6-mPEG2-O-oxycodone]", "categoryLabel": "Y"}
{"compound": "COCCOCCOCCOCCOCCOCCOC1CCC2(O)C3Cc4ccc(OC)c5c4C2(CCN3C)C1O5 (stereo not drawn) [α-6-mPEG6-O-hydroxycodone, α-6-mPEG6-O-oxycodone]", "categoryLabel": "Y"}

Is it true that Vd reported for COCCOCCOCCOCCOCCOCCOCCOCCOCCOC1CCC2(O)C3Cc4ccc(OC)c5c4C2(CCN3C)C1O5 (stereo not drawn) [α-6-mPEG9-O-hydroxycodone, α-6-mPEG9-O-oxycodone] is less than 5 L/kg?
N

Is it true that Vd reported for COCCOCCOCCOC1CCC2(O)C3Cc4ccc(OC)c5c4C2(CCN3C)C1O5 (stereo not drawn) [α-6-mPEG3-O-hydroxycodone, α-6-mPEG3-O-oxycodone] is less than 5 L/kg?
Y

* * *

# testName: Pharmacokinetics following intravenous (IV) dosing
# Assay type: in vivo, Sprague-Dawley rats
# testSettings: male, Sprague-Dawley, rat, plasma, iv, 1 mg/kg; read-out: Cmax
parameter: Cmax (ng/mL)
Just the number please, in ng/mL, no unit attached.

{"molecule": "COCCOC1C=CC2C3Cc4ccc(OC)c5c4C2(CCN3C)C1O5 (stereo not drawn) [α-6-mPEG1-O-codeine]", "parameter": "Cmax", "testResult": 723}
{"molecule": "COCCOCCOCCOCCOC1C=CC2C3Cc4ccc(OC)c5c4C2(CCN3C)C1O5 (stereo not drawn) [α-6-mPEG4-O-codeine]", "parameter": "Cmax", "testResult": 746}
{"molecule": "COCCOCCOCCOCCOCCOCCOCCOC1C=CC2C3Cc4ccc(OC)c5c4C2(CCN3C)C1O5 (stereo not drawn) [α-6-mPEG7-O-codeine]", "parameter": "Cmax", "testResult": 443}

Note to self: Cmax recorded for COCCOCCOCCOC1C=CC2C3Cc4ccc(OC)c5c4C2(CCN3C)C1O5 (stereo not drawn) [α-6-mPEG3-O-codeine] was 732

Note to self: Cmax recorded for COCCOCCOC1C=CC2C3Cc4ccc(OC)c5c4C2(CCN3C)C1O5 (stereo not drawn) [α-6-mPEG2-O-codeine] was 685

Note to self: Cmax recorded for COCCOCCOCCOCCOCCOCCOCCOCCOCCOC1C=CC2C3Cc4ccc(OC)c5c4C2(CCN3C)C1O5 (stereo not drawn) [α-6-mPEG9-O-codeine] was 730

Note to self: Cmax recorded for COCCOCCOCCOCCOCCOC1C=CC2C3Cc4ccc(OC)c5c4C2(CCN3C)C1O5 (stereo not drawn) [α-6-mPEG5-O-codeine] was 533

* * *

Recorded pEC50 by entry
# measuredOn: human mu opioid receptor (Homo sapiens)
# Construct: expressed in transfected cells; host or cells: CHO cells
# Sequence (P35372 whole entry): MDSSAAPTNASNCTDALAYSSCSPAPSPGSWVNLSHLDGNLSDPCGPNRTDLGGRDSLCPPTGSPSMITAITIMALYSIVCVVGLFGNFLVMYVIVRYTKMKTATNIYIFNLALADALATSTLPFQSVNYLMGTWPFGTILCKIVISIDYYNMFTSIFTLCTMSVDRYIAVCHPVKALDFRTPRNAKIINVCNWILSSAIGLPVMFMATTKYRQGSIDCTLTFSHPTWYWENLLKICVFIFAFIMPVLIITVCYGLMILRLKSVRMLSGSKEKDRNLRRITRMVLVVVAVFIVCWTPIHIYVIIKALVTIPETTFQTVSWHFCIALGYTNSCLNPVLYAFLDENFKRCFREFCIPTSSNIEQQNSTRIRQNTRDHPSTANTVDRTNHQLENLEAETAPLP
# testName: cell-based
By convention, pEC50 is the negative base-10 log of a molar concentration.

Here's what some known entries look like.
{"compound": "COCCOC1C=CC2C3Cc4ccc(O)c5c4C2(CCN3C)C1O5 (centres unmarked)", "pEC50": 7.07}
{"compound": "COCCOCCOC1C=CC2C3Cc4ccc(O)c5c4C2(CCN3C)C1O5 (centres unmarked)", "pEC50": 7.03}
{"compound": "COCCOCCOCCOCCOCCOCCOCCOC1C=CC2C3Cc4ccc(O)c5c4C2(CCN3C)C1O5 (centres unmarked)", "pEC50": 6.29}
{"compound": "COCCOCCOCCOCCOC1CCC2(O)C3Cc4ccc(OC)c5c4C2(CCN3C)C1O5 (stereo not drawn) [α-6-mPEG4-O-hydroxycodone, α-6-mPEG4-O-oxycodone]", "pEC50": 5.43}
{"compound": "COCCOCCOCCOCCOC1C=CC2C3Cc4ccc(O)c5c4C2(CCN3C)C1O5 (centres unmarked)", "pEC50": 6.89}

Noted pEC50 for COCCOCCOCCOCCOCCOCCOC1C=CC2C3Cc4ccc(O)c5c4C2(CCN3C)C1O5 (centres unmarked) , tested on human mu opioid receptor (Homo sapiens): 6.38

Noted pEC50 for COCCOCCOCCOCCOCCOC1C=CC2C3Cc4ccc(O)c5c4C2(CCN3C)C1O5 (centres unmarked) , tested on human mu opioid receptor (Homo sapiens): 6.80

Noted pEC50 for COCCOCCOCCOC1C=CC2C3Cc4ccc(O)c5c4C2(CCN3C)C1O5 (centres unmarked) , tested on human mu opioid receptor (Homo sapiens): 6.57

* * *

Recorded Emax by entry
# measuredOn: human kappa opioid receptor (Homo sapiens)
# Construct: expressed in transfected cells; host or cells: CHO cells
# testName: cell-based
# testSettings: maximal response at the highest tested concentration; read-out: % max effect, kappa opioid receptor
Just the number please, in %, no unit attached.

Here's what some known entries look like.
{"compound": "COCCOCCOCCOCCOCCOC1C=CC2C3Cc4ccc(OC)c5c4C2(CCN3C)C1O5 (stereo not shown)", "parameter": "Emax", "testResult": 60}
{"compound": "COCCOCCOC1C=CC2C3Cc4ccc(OC)c5c4C2(CCN3C)C1O5 (stereo not shown)", "parameter": "Emax", "testResult": 59}

Note to self: Emax recorded for COCCOCCOCCOCCOCCOCCOC1C=CC2C3Cc4ccc(OC)c5c4C2(CCN3C)C1O5 (stereo not shown) was 21

Note to self: Emax recorded for COCCOC1C=CC2C3Cc4ccc(OC)c5c4C2(CCN3C)C1O5 (stereo not shown) was 51

* * *

# measuredOn: human kappa opioid receptor (Homo sapiens, UniProt P41145)
# Sequence (P41145 whole entry): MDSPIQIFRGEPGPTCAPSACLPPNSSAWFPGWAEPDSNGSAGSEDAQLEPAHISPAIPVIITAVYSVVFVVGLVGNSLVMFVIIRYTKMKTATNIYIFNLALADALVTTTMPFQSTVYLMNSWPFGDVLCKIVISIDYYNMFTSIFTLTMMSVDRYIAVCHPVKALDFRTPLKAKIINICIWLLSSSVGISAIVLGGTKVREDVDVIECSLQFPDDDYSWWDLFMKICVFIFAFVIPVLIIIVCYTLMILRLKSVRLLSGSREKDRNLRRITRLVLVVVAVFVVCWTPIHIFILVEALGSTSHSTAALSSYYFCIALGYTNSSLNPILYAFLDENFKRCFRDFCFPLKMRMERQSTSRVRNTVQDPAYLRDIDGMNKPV
# testName: cell-based
parameter: EC50 (µM)
Just the number please, in µM, no unit attached.

Note to self: EC50 recorded for COCCOCCOC1C=CC2C3Cc4ccc(OC)c5c4C2(CCN3C)C1O5 (stereo not shown) was 40.1

* * *

System: human kappa opioid receptor (Homo sapiens) | Read-out: pKi
By convention, pKi is the negative base-10 log of a molar concentration.

Here's what some known entries look like.
{"compound": "COCCOC1C=CC2C3Cc4ccc(OC)c5c4C2(CCN3C)C1O5 (centres unmarked)", "pKi": 4.26}
{"compound": "COCCOCCOC1C=CC2C3Cc4ccc(OC)c5c4C2(CCN3C)C1O5 (centres unmarked)", "pKi": 4.65}
{"compound": "COCCOCCOCCOCCOC1C=CC2C3Cc4ccc(OC)c5c4C2(CCN3C)C1O5 (centres unmarked)", "pKi": 4.01}

Noted pKi for COCCOCCOCCOCCOCCOC1C=CC2C3Cc4ccc(OC)c5c4C2(CCN3C)C1O5 (centres unmarked) , tested on human kappa opioid receptor (Homo sapiens): 4.23

* * *

# testName: Pharmacokinetics following intravenous (IV) dosing
# Format: in vivo, Sprague-Dawley rats
# testSettings: male, Sprague-Dawley, rat, plasma; hydroxycodone series, 1 mg/kg IV, Mean ± SD
Recorded AUC by entry

Here's what some known entries look like.
{"compound": "COCCOCCOCCOCCOCCOCCOCCOCCOCCOC1CCC2(O)C3Cc4ccc(OC)c5c4C2(CCN3C)C1O5 (stereo not drawn) [α-6-mPEG9-O-hydroxycodone, α-6-mPEG9-O-oxycodone]", "parameter": "AUC", "testResult": "277 ng·h/mL"}
{"compound": "COCCOCCOC1CCC2(O)C3Cc4ccc(OC)c5c4C2(CCN3C)C1O5 (stereo not drawn) [α-6-mPEG2-O-hydroxycodone, α-6-mPEG2-O-oxycodone]", "parameter": "AUC", "testResult": "200 ng·h/mL"}

Consider the additional compound presented here.
Note to self: AUC recorded for COCCOCCOCCOCCOCCOCCOCCOC1CCC2(O)C3Cc4ccc(OC)c5c4C2(CCN3C)C1O5 (stereo not drawn) [α-6-mPEG7-O-hydroxycodone, α-6-mPEG7-O-oxycodone] was 238 ng·h/mL
